Provenance of the data: ChEMBL document CHEMBL5360590

test system: Vibrio parahaemolyticus; experiment: Antibacterial activity against Vibrio parahaemolyticus assessed as bacterial growth inhibition; assay type: functional
Parameter Measured: MIC

Example cases with answers are listed next.
CCCCC(=O)O[C@H]1C[C@@H]2[C@@]3(C)CCC[C@](C)(CC)[C@@H]3CC[C@@]2(C)[C@@H]2CC=C(C(=O)O)[C@@]12C; 16 µg/mL
CC[C@@]1(C)CCC[C@]2(C)[C@H]3C[C@H](OC(=O)CCC(C)C)[C@]4(C)C(C=O)=CC[C@H]4[C@]3(C)CC[C@@H]12; 2 µg/mL
C[C@H]1COc2c(N3CCN(C)CC3)c(F)cc3c(=O)c(C(=O)O)cn1c23 [LEVOFLOXACIN ANHYDROUS]; 0.5 µg/mL

Name the reported MIC value associated with the compound `CCCCC(=O)O[C@H]1C[C@@H]2[C@@]3(C)CCC[C@](C)(CC)[C@@H]3CC[C@@]2(C)[C@@H]2CC=C(C=O)[C@@]12C` 4 µg/mL

Moving on to `CC[C@@]1(C)CCC[C@]2(C)[C@H]3C[C@H](OC(=O)C[C@H](O)C(C)C)[C@]4(C)C(C=O)=CC[C@H]4[C@]3(C)CC[C@@H]12` > 64 µg/mL

// repeat for `CC[C@@]1(C)CCC[C@]2(C)[C@H]3C[C@H](OC(=O)CCC(C)C)[C@]4(C)C(C(=O)O)=CC[C@H]4[C@]3(C)CC[C@@H]12` and report 2 µg/mL

====

tested on: Vibrio vulnificus; test: Antibacterial activity against Vibrio vulnificus assessed as bacterial growth inhibition; assay type: functional
MIC by entry:
Form entry: enter the amount, then its unit.

Reference set, count: 2
CCCCC(=O)O[C@H]1C[C@@H]2[C@@]3(C)CCC[C@](C)(CC)[C@@H]3CC[C@@]2(C)[C@@H]2CC=C(C=O)[C@@]12C; 4 µg/mL
CCCCC(=O)O[C@H]1C[C@@H]2[C@@]3(C)CCC[C@](C)(CC)[C@@H]3CC[C@@]2(C)[C@@H]2CC=C(C(=O)O)[C@@]12C; 64 µg/mL

Turning to the following compound.
Endpoint output: MIC of C[C@H]1COc2c(N3CCN(C)CC3)c(F)cc3c(=O)c(C(=O)O)cn1c23 [LEVOFLOXACIN ANHYDROUS] . Value? 0.5 µg/mL

====

Quick reference for MIC among some compounds
system: Bacillus subtilis; assay: Antibacterial activity against Bacillus subtilis assessed as bacterial growth inhibition; assay type: functional
Report only the number, with the unit µg/mL understood.

Past entries and their recorded results:
CC[C@@]1(C)CCC[C@]2(C)[C@H]3C[C@H](OC(=O)C[C@H](O)C(C)C)[C@]4(C)C(C=O)=CC[C@H]4[C@]3(C)CC[C@@H]12; 8
C[C@H]1COc2c(N3CCN(C)CC3)c(F)cc3c(=O)c(C(=O)O)cn1c23 [LEVOFLOXACIN ANHYDROUS]; 0.25
CCCCC(=O)O[C@H]1C[C@@H]2[C@@]3(C)CCC[C@](C)(CC)[C@@H]3CC[C@@]2(C)[C@@H]2CC=C(C(=O)O)[C@@]12C; 16
CCCCC(=O)O[C@H]1C[C@@H]2[C@@]3(C)CCC[C@](C)(CC)[C@@H]3CC[C@@]2(C)[C@@H]2CC=C(C=O)[C@@]12C; 2
CC[C@@]1(C)CCC[C@]2(C)[C@H]3C[C@H](OC(=O)CCC(C)C)[C@]4(C)C(C(=O)O)=CC[C@H]4[C@]3(C)CC[C@@H]12; 2

# input for lookup
Value lookup for MIC; key = `CC[C@@]1(C)CCC[C@]2(C)[C@H]3C[C@H](OC(=O)CCC(C)C)[C@]4(C)C(C=O)=CC[C@H]4[C@]3(C)CC[C@@H]12` 1

====

system: MDA-MB-231; test: Cytotoxicity against human MDA-MB-231 cells assessed as reduction in cell viability by CCK-8 assay; assay type: functional, cell-based
pIC50: −log10 of the molar value.
Parameter Measured: pIC50

Here are 2 molecules together with their reported answers.
CCCCC(=O)O[C@H]1C[C@@H]2[C@@]3(C)CCC[C@](C)(CC)[C@@H]3CC[C@@]2(C)[C@@H]2CC=C(C=O)[C@@]12C; < 4.30
CC[C@@]1(C)CCC[C@]2(C)[C@H]3C[C@H](OC(=O)CCC(C)C)[C@]4(C)C(C(=O)O)=CC[C@H]4[C@]3(C)CC[C@@H]12; < 4.30

# query: pIC50 of entry `CCCCC(=O)O[C@H]1C[C@@H]2[C@@]3(C)CCC[C@](C)(CC)[C@@H]3CC[C@@]2(C)[C@@H]2CC=C(C(=O)O)[C@@]12C` < 4.30
